protocol_text: Aqueous solubility at pH6.5
Type: physicochemical
cond: buffer, pH 6.5
property: solubility

> print(dat)
                           smiles.structure  experimental.result
1  CCCCCc1ccc(S(=O)(=O)NCCc2nc(-c3cccs3)[nH]c2-c2ccc(OC)cc2)cc1            < 1 µg/mL

* * *

Measured inhibition values are reported for all entries that follow.
target_desc: UniProt P18054
Sequence (P18054 whole entry): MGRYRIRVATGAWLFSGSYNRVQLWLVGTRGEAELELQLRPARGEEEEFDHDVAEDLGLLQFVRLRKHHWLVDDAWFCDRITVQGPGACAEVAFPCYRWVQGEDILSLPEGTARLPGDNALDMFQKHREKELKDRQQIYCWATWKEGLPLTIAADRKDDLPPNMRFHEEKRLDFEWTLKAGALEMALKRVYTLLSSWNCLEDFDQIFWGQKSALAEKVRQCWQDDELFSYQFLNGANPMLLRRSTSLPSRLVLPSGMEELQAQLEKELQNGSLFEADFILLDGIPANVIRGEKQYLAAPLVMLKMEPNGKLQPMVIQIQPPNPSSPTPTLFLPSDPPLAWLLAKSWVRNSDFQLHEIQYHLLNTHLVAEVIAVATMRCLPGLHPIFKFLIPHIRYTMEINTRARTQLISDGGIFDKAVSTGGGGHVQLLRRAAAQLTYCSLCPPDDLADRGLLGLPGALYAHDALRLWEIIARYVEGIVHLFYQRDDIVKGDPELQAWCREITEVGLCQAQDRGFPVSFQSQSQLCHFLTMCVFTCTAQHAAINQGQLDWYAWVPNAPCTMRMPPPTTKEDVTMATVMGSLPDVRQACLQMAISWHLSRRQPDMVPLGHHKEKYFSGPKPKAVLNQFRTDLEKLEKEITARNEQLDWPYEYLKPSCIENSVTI
protocol_text: Inhibition of platelet 12-lipoxygenase at 10 uM
property: inhibition (%)

> print(dat)
                           smiles.structure  experimental.result
1  CCCCCc1ccc(S(=O)(=O)NCCc2nc(-c3ccccc3)[nH]c2-c2ccc(F)cc2)cc1                   47
2  CCCCCc1ccc(S(=O)(=O)NCCc2nc(-c3ccccc3)[nH]c2-c2ccccc2)cc1                   32
3  COc1ccc(-c2[nH]c(-c3cccs3)nc2CCNS(=O)(=O)N(C)[C@@H]2CCN(Cc3ccc(Cl)c(Cl)c3)C2)cc1                   42
4  CCCCCc1ccc(S(=O)(=O)NCCc2nc(-c3cccs3)[nH]c2-c2ccc(OC)cc2)cc1                   50

* * *

target_desc: Polyunsaturated fatty acid lipoxygenase ALOX15 (Oryctolagus cuniculus, UniProt P12530)
Sequence (P12530 whole entry): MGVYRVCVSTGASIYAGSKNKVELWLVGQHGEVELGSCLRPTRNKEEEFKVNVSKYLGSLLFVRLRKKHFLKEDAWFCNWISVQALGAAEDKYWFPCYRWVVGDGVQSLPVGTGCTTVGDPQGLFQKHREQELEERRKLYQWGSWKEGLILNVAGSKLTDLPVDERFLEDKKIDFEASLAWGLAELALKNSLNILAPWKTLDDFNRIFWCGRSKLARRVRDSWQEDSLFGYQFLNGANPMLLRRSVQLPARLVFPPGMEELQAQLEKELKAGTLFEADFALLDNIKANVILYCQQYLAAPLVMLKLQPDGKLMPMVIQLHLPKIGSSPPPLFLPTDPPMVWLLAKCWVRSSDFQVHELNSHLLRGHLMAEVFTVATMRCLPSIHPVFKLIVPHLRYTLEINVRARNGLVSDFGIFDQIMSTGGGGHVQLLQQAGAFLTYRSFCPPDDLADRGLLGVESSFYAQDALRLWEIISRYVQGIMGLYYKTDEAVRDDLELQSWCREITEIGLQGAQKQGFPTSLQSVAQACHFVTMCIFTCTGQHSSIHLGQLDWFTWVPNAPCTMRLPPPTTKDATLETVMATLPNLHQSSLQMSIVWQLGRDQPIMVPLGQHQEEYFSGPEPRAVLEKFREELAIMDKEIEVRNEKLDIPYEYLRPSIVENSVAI
protocol_text: Inhibition of rabbit 15-lipoxygenase in presence of linoleic acid
property: IC50 (nM)

> print(dat)
                            smiles.structure  inequality.operator  experimental.result
 1  CCCCCc1ccc(S(=O)(=O)NCCc2nc(-c3ccccn3)[nH]c2-c2ccc(OC)cc2)cc1                    =                  970
 2  CCCCCc1ccc(S(=O)(=O)NCCc2nc(C3CC3)[nH]c2-c2ccc(OC)cc2)cc1                    >                10000
 3  COc1ccc(-c2[nH]c(-c3ccccc3)nc2CCNS(=O)(=O)N2CCN(c3ccccc3)CC2)cc1                    =                  212
 4  CCCCCc1ccc(S(=O)(=O)NCCc2nc(C(C)(C)C)[nH]c2-c2ccc(OC)cc2)cc1                    =                 1920
 5  COc1ccc(-c2[nH]c(-c3cccs3)nc2CCNS(=O)(=O)N(C)[C@@H]2CCN(Cc3ccccc3)C2)cc1                    =                   38
 6  CCCCCc1ccc(S(=O)(=O)NCCc2nc(-c3ccc(C)cc3)[nH]c2-c2ccc(OC)cc2)cc1                    >                 3000
 7  CCCCCc1ccc(S(=O)(=O)NCCCc2nc(-c3ccccc3)[nH]c2-c2ccc(OC)cc2)cc1                    =                  140
 8  CCCCN1CCN(S(=O)(=O)NCCc2nc(-c3cccs3)[nH]c2-c2ccc(OC)cc2)CC1                    =                   14
 9  CCCCCc1ccc(S(=O)(=O)NCCc2nc(-c3cccnc3)[nH]c2-c2ccc(OC)cc2)cc1                    =                  560
10  COc1ccc(-c2[nH]c(-c3ccccc3)nc2CCNS(=O)(=O)c2ccc(C)cc2)cc1                    =                  364
11  CCCCCc1ccc(S(=O)(=O)NCCc2nc(-c3ccccc3)[nH]c2-c2ccc(C(F)(F)F)cc2)cc1                    =                   72
12  CCCCCN1CCN(S(=O)(=O)NCCc2nc(-c3cccs3)[nH]c2-c2ccc(OC)cc2)CC1                    =                   91
13  COc1ccc(-c2[nH]c(-c3ccccc3)nc2CCNS(=O)(=O)N2CCN(c3ccc(Cl)c(Cl)c3)CC2)cc1                    =                   55
14  COc1ccc(-c2[nH]c(-c3ccccc3)nc2CCNS(=O)(=O)N[C@H]2CCN(Cc3ccccc3)C2)cc1                    =                  272
15  CCCCCc1ccc(S(=O)(=O)NCCc2nc(-c3cnccn3)[nH]c2-c2ccc(OC)cc2)cc1                    =                 2810
16  CCCCCc1ccc(S(=O)(=O)NCCc2nc(-c3ccccc3)[nH]c2-c2ccc(F)cc2)cc1                    =                   59
17  CCN([C@@H]1CCN(C(C)(C)c2ccccc2)C1)S(=O)(=O)NCCc1nc(-c2cccs2)[nH]c1-c1ccc(OC)cc1                    =                   10
18  COc1ccc(-c2[nH]c(-c3ccccc3)nc2CCNS(=O)(=O)N(C)[C@@H]2CCN(Cc3ccccc3)C2)cc1                    =                   31
19  COc1ccc(-c2[nH]c(-c3cccs3)nc2CCNS(=O)(=O)N2CCN(c3ccc(Cl)c(Cl)c3)CC2)cc1                    =                   36
20  COc1ccc(-c2[nH]c(-c3cccs3)nc2CCNS(=O)(=O)N2CCN(c3ccccc3Cl)CC2)cc1                    =                   45
21  COc1ccc(-c2[nH]c(-c3ccccc3)nc2CCNS(=O)(=O)N[C@@H]2CCN(Cc3ccccc3)C2)cc1                    =                   83
22  CCCCCc1ccc(S(=O)(=O)NCCc2[nH]cnc2-c2ccc(OC)cc2)cc1                    >                10000
23  CCCCCc1ccc(S(=O)(=O)NCCc2nc(-c3csc(C)n3)[nH]c2-c2ccc(OC)cc2)cc1                    =                  720
24  CCCCCc1ccc(S(=O)(=O)NCCc2nc(-c3ccc(OC)cc3)[nH]c2-c2ccc(OC)cc2)cc1                    >                10000
25  CCCCCc1ccc(S(=O)(=O)NCCc2nc(-c3cccc([N+](=O)[O-])c3)[nH]c2-c2ccc(OC)cc2)cc1                    =                   99
26  CCCCCc1ccc(S(=O)(=O)NCCc2nc(C)[nH]c2-c2ccc(OC)cc2)cc1                    >                10000
27  CCCCCc1ccc(S(=O)(=O)NCCCc2nc(-c3cccs3)[nH]c2-c2ccc(OC)cc2)cc1                    =                   53
28  CCCCCc1ccc(S(=O)(=O)NCCc2nc(-c3ccc(Cl)cc3)[nH]c2-c2ccc(OC)cc2)cc1                    =                   21
29  COc1ccc(-c2[nH]c(-c3ccccc3)nc2CCNS(=O)(=O)N(C)[C@H]2CCN(Cc3ccccc3)C2)cc1                    =                   80
30  CCCCCc1ccc(S(=O)(=O)NCCc2nc(-c3ccccc3)[nH]c2-c2ccccc2)cc1                    =                   33
31  CCCCCc1ccc(S(=O)(=O)NCCc2nc(-c3cccs3)[nH]c2-c2ccc(OC)cc2)cc1                    =                    6
32  CCCCCc1ccc(S(=O)(=O)NCCc2nc(-c3ccccc3)[nH]c2-c2ccc(OC)cc2)cc1                    =                   14
33  COc1ccc(-c2[nH]c(-c3cccs3)nc2CCNS(=O)(=O)N(C)[C@@H]2CCN(Cc3ccc(Cl)c(Cl)c3)C2)cc1                    =                   11
34  CCCCCc1ccc(S(=O)(=O)NCCc2nc(-c3ccncc3)[nH]c2-c2ccc(OC)cc2)cc1                    =                   87
35  CCCCCc1ccc(S(=O)(=O)NCCc2nc(-c3ccccc3)[nH]c2-c2cccc(OC)c2)cc1                    =                   82
